S.I. with (CC50/IC50^WT) overview
# Test system: MT-4 cells
# protocol-text: in vitro
# Format: cell-based, human
# test-parameters: CC50 in MT-4 / IC50 against HIV-1^WT
Counter-ions that a name gives are not always drawn.

Known results for compounds:
* CC(C)OC(=O)OCOP(=O)(CO[C@H](C)Cn1cnc2c(N)ncnc21)OCOC(=O)OC(C)C [TDF, tenofovir disoproxil fumarate, reference compound] | 190
* N#C[C@]1(CO)O[C@@H](n2cnc3c(N)nc(N)nc32)C[C@@H]1O | 17,500
* Nc1nc(N)c2ncn([C@H]3C[C@H](O)[C@](CO)(CF)O3)c2n1 | 7,400
* C=C[C@]1(CO)O[C@@H](n2cnc3c(N)nc(N)nc32)C[C@@H]1O | 4,790
* Nc1nc(F)nc2c1ncn2[C@H]1C[C@H](O)[C@](CO)(CF)O1 | 260

Challenge: May I ask what S.I. with (CC50/IC50^WT) has been recorded for `CC[C@]1(CO)O[C@@H](n2cnc3c(O)nc(N)nc32)C[C@@H]1O` ?
Response given: 8,390

Challenge: May I ask what S.I. with (CC50/IC50^WT) has been recorded for Nc1nc(NC2CC2)c2ncn([C@H]3C=C[C@@H](CO)C3)c2n1 [ABC, abacavir, reference compound] ?
Response given: >380
